# Test system: Mus musculus
# assay method text: Anticonvulsant activity in ip dosed Mus musculus C57B/6 (mouse) assessed protection against maximal electroshock-induced seizures after 0.5 hr
# Type: functional
# reported conditions: C57B/6, ip, read-out: MED
reported property: minimal effective dose (mg/kg)
Answer in mg/kg, number only, no unit symbol.

Summary for this molecule, `O=C1NC(=O)C(c2ccccc2)(c2ccccc2)N1` : minimal effective dose is 30

The reported value for `O=C(N/N=C/c1cccc(Cl)c1)c1ccncc1` in terms of minimal effective dose is 300

Reported minimal effective dose ( `O=C(N/N=C/c1cccc(Cl)c1)c1cccnc1` ) = 300

Lab note: measured minimal effective dose of `O=C(N/N=C/c1ccc(Cl)cc1)c1ccncc1` was 100

minimal effective dose measured on `O=C(N/N=C/c1cccc(Br)c1)c1cccnc1` = 100

Record summary for `O=C(N/N=C/c1ccc(Cl)cc1)c1cccnc1` : reported minimal effective dose = 100

----------
# assay method text: Neurotoxicity in ip dosed Mus musculus C57B/6 (mouse) assessed motor impairment by rotarod test
# Type: toxicity, organism-based
# reported conditions: in vivo
For each entry below, report its TD50 value.

// TD50 lookup, molecule = `O=C(N/N=C/c1cccc(Cl)c1)c1cccnc1` , result: > 500 mg/kg

Kindly note the recorded TD50 for `O=C(N/N=C/c1ccc(Cl)cc1)c1cccnc1` , which is > 325 mg/kg

The molecule listed as `O=C(N/N=C/c1cccc(Br)c1)c1cccnc1` has a reported TD50 of > 520 mg/kg
